TARGET UNDER TEST: UniProt:Q8ILY1
ASSAY PROTOCOL: Fluorescence-based high-throughput DNA polymerase assay (molecular beacon), primary screen and dose-response
Assay type: biochemical
CONDITION CONTEXT: DRC-2; 180'; concentration 10
Measured % inhibition apPOL 180' determines class: 0 (below 20%), 1 (20% to below 40%), 2 (40% or more)

Task item: Which bin should I file O=C(Nc1ccc2c(c1)Cc1cc(NC(=O)c3ccco3)ccc1-2)c1ccco1 under?
Reply: 1

Task item: Which bin should I file O=C(Nc1cccc(C(=O)Nc2ccc(S(=O)(=O)[O-])c3cc(S(=O)(=O)[O-])cc(S(=O)(=O)[O-])c23)c1)Nc1cccc(C(=O)Nc2ccc(S(=O)(=O)[O-])c3cc(S(=O)(=O)[O-])cc(S(=O)(=O)[O-])c23)c1.[Na+].[Na+].[Na+].[Na+].[Na+].[Na+] under?
Reply: 1

====

TARGET UNDER TEST: UniProtKB Q8ILY1
ASSAY PROTOCOL: Fluorescence-based high-throughput DNA polymerase assay (molecular beacon), primary screen and dose-response
Assay type: biochemical
CONDITION CONTEXT: DRC-1; read at 10'; concentration 40
Consider the following compounds and their measured % inhibition Apo pol 10' 40 readings.
Field format: number, assumed %, no unit text.

Check out these entries, answers already filled in.
COMPOUND: CC(=O)Nc1cc(C(=O)c2cccs2)nn(-c2ccc(Cl)cc2)c1=O
UNIT ABBREV: %
% inhibition Apo pol 10' 40: 60.7427
//
COMPOUND: O=C1CSC2=NC3=C(CCc4ccccc43)C(c3cccs3)N12 (stereo not shown)
UNIT ABBREV: %
% inhibition Apo pol 10' 40: 67.0288
//
COMPOUND: Cn1nc(-c2nnc(-c3ccccc3F)o2)c2c1CCN(C(=O)c1ccccc1Cl)C2
UNIT ABBREV: %
% inhibition Apo pol 10' 40: 59
//
COMPOUND: Nc1cc(Oc2ccc(O)c(N)c2)ccc1O
UNIT ABBREV: %
% inhibition Apo pol 10' 40: 80.3003
//
COMPOUND: Cc1ccc(N2CCC(NC(=O)Cc3cccs3)C2=O)cc1C (stereo not shown)
UNIT ABBREV: %
% inhibition Apo pol 10' 40: 44.443

Task item: Identify measured % inhibition Apo pol 10' 40 corresponding to Cn1nc(-c2nc(-c3ccccc3)no2)c2c1CCN(C(=O)Cc1cccs1)C2
Reply: 65

Task item: Identify measured % inhibition Apo pol 10' 40 corresponding to C#CC(C=CC)OC(=O)c1ccccc1C(=O)O (stereo not shown)
Reply: 73.1045

====

Consider the following compounds and their measured % inhibition apPOL 180' readings.
TARGET UNDER TEST: P. falciparum apicoplast DNA polymerase (Pf-apPOL) (Plasmodium falciparum, UniProt Q8ILY1)
Sequence (Q8ILY1 entry or part of it): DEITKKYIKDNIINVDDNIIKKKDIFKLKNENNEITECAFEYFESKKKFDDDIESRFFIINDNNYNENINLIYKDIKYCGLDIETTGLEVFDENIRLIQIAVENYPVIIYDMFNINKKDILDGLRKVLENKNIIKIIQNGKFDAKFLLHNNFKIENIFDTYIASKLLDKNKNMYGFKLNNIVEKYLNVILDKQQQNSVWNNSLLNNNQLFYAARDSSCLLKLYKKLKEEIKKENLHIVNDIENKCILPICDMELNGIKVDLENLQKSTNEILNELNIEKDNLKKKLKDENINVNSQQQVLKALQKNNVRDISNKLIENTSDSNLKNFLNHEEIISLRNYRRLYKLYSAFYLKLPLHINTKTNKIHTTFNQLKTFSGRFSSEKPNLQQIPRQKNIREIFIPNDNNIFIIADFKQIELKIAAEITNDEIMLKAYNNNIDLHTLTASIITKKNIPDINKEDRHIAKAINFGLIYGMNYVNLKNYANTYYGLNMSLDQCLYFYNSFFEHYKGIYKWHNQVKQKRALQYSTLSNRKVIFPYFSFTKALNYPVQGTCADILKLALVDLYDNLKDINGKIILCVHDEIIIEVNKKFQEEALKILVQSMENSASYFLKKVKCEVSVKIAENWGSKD
ASSAY PROTOCOL: Fluorescence-based high-throughput DNA polymerase assay (molecular beacon), primary screen and dose-response;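 for % inhibition apPOL 180': test concentration in µM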
Type: biochemical
CONDITION CONTEXT: DRC-2; 180'; concentration 2.5
Field format: number, assumed %, no unit text.

Check out these entries, answers already filled in.
COMPOUND: COCC(=O)Nc1c(-c2cccc(F)c2)nc2cc(C)ccn12 [Molecule 44, COCC(=O)Nc1c(nc2n1ccc(c2)C)c1cccc(c1)F]
TARGET UNDER TEST: P. falciparum apicoplast DNA polymerase (Pf-apPOL) (Plasmodium falciparum, UniProt Q8ILY1)
% inhibition apPOL 180' [%]: 3.16

COMPOUND: COCCN(CCOC)Cc1c(O)ccc2c1OC(=Cc1cc(Br)ccc1OC)C2=O [KU0198471]
TARGET UNDER TEST: P. falciparum apicoplast DNA polymerase (Pf-apPOL) (Plasmodium falciparum, UniProt Q8ILY1)
% inhibition apPOL 180' [%]: 4.6

Task item: Identify measured % inhibition apPOL 180' corresponding to O=C(c1c[nH]c2ncccc12)N1CCCC1 [Molecule 63, O=C(c1c[nH]c2c1cccn2)N1CCCC1]
Reply: -1

Task item: Identify measured % inhibition apPOL 180' corresponding to N#CC(=NNc1cc(C(F)(F)F)cc(C(F)(F)F)c1)C(=O)c1ccco1 [KU0264276]
Reply: -0.774

====

TARGET UNDER TEST: P. falciparum apicoplast DNA polymerase (Pf-apPOL) (Plasmodium falciparum, UniProt Q8ILY1)
ASSAY PROTOCOL: Fluorescence-based high-throughput DNA polymerase assay (molecular beacon), primary screen and dose-response;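 for % inhibition apPOL 180': test concentration in µM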
Format: biochemical
CONDITION CONTEXT: DRC-2; 180'; concentration 20
Consider the following compounds and their measured % inhibition apPOL 180' readings.
The answer consists of two parts: a number and, after it, its unit.

Check out these entries, answers already filled in.
COMPOUND: O=C(Cn1ccc2c(=O)[nH]ccc21)Nc1cccc(Cl)c1 [Molecule 23, O=C(Cn1ccc2c1cc[nH]c2=O)Nc1cccc(c1)Cl]
% inhibition apPOL 180': 71%

COMPOUND: Cc1ccc(C)c(CSc2nc(C3CCCCC3)c(C#N)c(=O)[nH]2)c1 [Molecule 6]
% inhibition apPOL 180': 67%

COMPOUND: O=C(Cn1ccc2c(=O)[nH]ccc21)Nc1cc(F)ccc1F [Molecule 42, O=C(Cn1ccc2c1cc[nH]c2=O)Nc1cc(F)ccc1F]
% inhibition apPOL 180': 46%

COMPOUND: CCC(C)NC(=O)c1cc(NC(C)=O)cc2nc(C)ccc12 (stereo not shown) [KU0206314]
% inhibition apPOL 180': 23%

COMPOUND: CC(C)CC(C(=O)O)N1C(=O)C2C3C=CC(C2C1=O)C1C(=O)N(C(CC(C)C)C(=O)O)C(=O)C31 (stereo not shown) [KU0193449]
% inhibition apPOL 180': 13%

COMPOUND: CCCCOC(=O)CCCCCN1C(=O)C(=Cc2ccc(OC)cc2)SC1=S [Molecule 75]
% inhibition apPOL 180': 40%

Task item: Identify measured % inhibition apPOL 180' corresponding to O=C(NCC1CCN(C2CCCC2)CC1)C(=O)NC1CCCC1 [KU0199596]
Reply: 16%

Task item: Identify measured % inhibition apPOL 180' corresponding to COc1cccc(Oc2c(C(F)(F)F)oc3cc(OC(=O)N(C)C)ccc3c2=O)c1 [Molecule 52]
Reply: 33%

Task item: Identify measured % inhibition apPOL 180' corresponding to CCOc1cccc2cc(C(=O)Nc3nnc(-c4ccno4)o3)oc12 [Molecule 28, CCOc1cccc2c1oc(c2)C(=O)Nc1nnc(o1)c1ccno1]
Reply: 44%

Task item: Identify measured % inhibition apPOL 180' corresponding to O=c1[nH]c2ccc(Br)cc2c(-c2ccccc2)c1C1=NNC(c2ccco2)C1 (stereo not shown) [KU0045540]
Reply: 72%

Task item: Identify measured % inhibition apPOL 180' corresponding to Cc1cc(C)c(O)c(/N=C/c2cc([N+](=O)[O-])cc(Br)c2O)c1 [KU0046272]
Reply: 17%

Task item: Identify measured % inhibition apPOL 180' corresponding to Cc1ccc(-n2nnc(C(=O)O)c2-c2ccccn2)c(F)c1 [Molecule 54, Cc1ccc(c(c1)F)n1nnc(c1c1ccccn1)C(=O)O]
Reply: 28%

Task item: Identify measured % inhibition apPOL 180' corresponding to N#Cc1c(C2CCCCC2)nc(Sc2ccc(C(F)(F)F)cc2[N+](=O)[O-])[nH]c1=O [Molecule 20]
Reply: 64%

Task item: Identify measured % inhibition apPOL 180' corresponding to CC(=O)Nc1cc(C(=O)NC(C)C)c2ccc(C)nc2c1 [KU0206312]
Reply: 41%

Task item: Identify measured % inhibition apPOL 180' corresponding to O=C(O)c1cccc(N2N=C(C(F)(F)F)/C(=C/c3ccc(-c4ccccc4[N+](=O)[O-])o3)C2=O)c1 [Molecule 100]
Reply: 60%

Task item: Identify measured % inhibition apPOL 180' corresponding to Oc1cccc2ccc(/C=C/c3ccc4c(c3)OCO4)nc12 [KU0025984]
Reply: 66%

Task item: Identify measured % inhibition apPOL 180' corresponding to Cc1ccc(C)n1-c1ccc(C(=O)NNC(=O)c2ccc3nccnc3c2)cc1 [Molecule 53]
Reply: 37%

====

TARGET UNDER TEST: P. falciparum apicoplast DNA polymerase (Pf-apPOL) (Plasmodium falciparum)
ASSAY PROTOCOL: Fluorescence-based high-throughput DNA polymerase assay (molecular beacon), primary screen and dose-response
Type: biochemical
CONDITION CONTEXT: DRC-1; 180'; concentration 80
Label scheme for % inhibition apPOL 180': lower than 70% is Criterion not met, 70% and above is Criterion met.

Reference set (10 entries):
COMPOUND: OC(C#Cc1ccccc1)c1ccco1 (stereo not shown)
DISCRETE LABEL: Criterion met
--
COMPOUND: Cc1cc(C)c(O)c(/N=C/c2cc([N+](=O)[O-])cc(Br)c2O)c1
DISCRETE LABEL: Criterion met
--
COMPOUND: Cc1ccccc1C(=O)N1CCc2c(nc3cc(-c4ccccc4)[nH]n3c2=O)C1
DISCRETE LABEL: Criterion not met
--
COMPOUND: CC(=O)Nc1cc(C(=O)NC(C)C)c2ccc(C)nc2c1
DISCRETE LABEL: Criterion met
--
COMPOUND: Cc1cc(C)c2c(O)nc(SCC(=O)c3ccc(O)c(O)c3)nc2n1
DISCRETE LABEL: Criterion met
--
COMPOUND: O=C(Cn1ccc2c(=O)[nH]ccc21)Nc1cccc(Cl)c1 [Molecule 23, O=C(Cn1ccc2c1cc[nH]c2=O)Nc1cccc(c1)Cl]
DISCRETE LABEL: Criterion met
--
COMPOUND: COc1ccc(C)cc1NC(=O)Cn1ccc2c(=O)[nH]ccc21 [Molecule 15, COc1ccc(cc1NC(=O)Cn1ccc2c1cc[nH]c2=O)C]
DISCRETE LABEL: Criterion met
--
COMPOUND: O=C(O)c1cccc(N2N=C(C(F)(F)F)/C(=C/c3ccc(-c4ccccc4[N+](=O)[O-])o3)C2=O)c1
DISCRETE LABEL: Criterion met
--
COMPOUND: O=C1C(=Cc2ccncc2)Oc2c1ccc1c2CN(Cc2ccc3c(c2)OCO3)CO1
DISCRETE LABEL: Criterion met
--
COMPOUND: Cc1ccc2c(C(=O)NCCc3cccnc3)cc(NC(=O)C(C)C)cc2n1
DISCRETE LABEL: Criterion met

Task item: Check the entry COc1cc(NC(=O)c2ccccc2)c(OC)cc1NC(=O)Cc1cccs1 : does % inhibition apPOL 180' equal or exceed 70%?
Reply: Criterion met

Task item: Check the entry O=C(Nc1nnc(-c2ccno2)o1)c1ccc2ncsc2c1 : does % inhibition apPOL 180' equal or exceed 70%?
Reply: Criterion not met

Task item: Check the entry O=C(c1c[nH]c2ncccc12)N1CCCCCC1 [Molecule 51, O=C(c1c[nH]c2c1cccn2)N1CCCCCC1] : does % inhibition apPOL 180' equal or exceed 70%?
Reply: Criterion not met

Task item: Check the entry O=C(Nc1ccc2c(c1)Cc1cc(NC(=O)c3ccco3)ccc1-2)c1ccco1 : does % inhibition apPOL 180' equal or exceed 70%?
Reply: Criterion met

Where do the numbers come from? From paper PMC9090415.
